Entries and their GI50 values follow.
System: SK-BR-3 cancer cells
Test: Inhibitory activity against proliferation of SK-BR-3 cancer cells (CellTiter-Glo)
Format: cell-based
Details: Homo sapiens, SK-BR-3, 120 h, ErbB2-overexpressing SK-BR-3 cells, 120 hours after treatment

Below: 3 molecules and their reported GI50.
C=CC(=O)Nc1cc(Nc2cc(N3OCC[C@@H]3c3cccc(C#Cc4cccc(F)c4)c3)ncn2)c(OC)cc1N(C)CCN(C)C
< 50 nM
C=CC(=O)Nc1cc(Nc2cc(N3OCC[C@@H]3c3cccc(-c4ccccc4)c3)ncn2)c(OC)cc1N1CCC(N2CCN(C3CC3)[C@@H](C)C2)CC1
< 50 nM
C=CC(=O)Nc1cc(Nc2cc(N3OCC[C@@H]3c3cccc(C#Cc4ccccc4)c3)ncn2)c(OC)cc1N(C)CCN(C)C
< 50 nM

For reference, reported GI50 for C=CC(=O)Nc1cc(Nc2cc(N3OCCC3c3cccc(-c4cc(F)cc(F)c4)c3)ncn2)c(OC)cc1N(C)CCN(C)C (stereo not shown) stands at < 50 nM

Sample `C=CC(=O)Nc1cc(Nc2cc(N3OCC[C@@H]3c3cc(F)cc(Oc4cccc(F)c4)c3)ncn2)c(OC)cc1N1CCN(CC)CC1` ; GI50 observed: < 50 nM

Sure, the documented GI50 for `C=CC(=O)Nc1cc(Nc2cc(N3OCC[C@@H]3c3cc(F)cc(Oc4cccc(F)c4)c3)ncn2)c(OC)cc1N1CCC(N(C)C)CC1` is < 50 nM

Briefly, GI50 measured for `C=CC(=O)Nc1cc(Nc2cc(N3OCC[C@@H]3c3cccc(OCc4ccccc4)c3)ncn2)c(OC)cc1N(C)CCN(C)C` : < 50 nM

The molecule identified as `C=CC(=O)Nc1cc(Nc2cc(N3OCC[C@@H]3c3cccc(-c4ccccc4)c3)ncn2)c(OC)cc1N1CCO[C@@H](C)C1` registered its GI50 at < 50 nM

Entry under test: `C=CC(=O)Nc1cc(Nc2cc(N3OCC[C@@H]3c3cccc(-c4cnc(C)c(F)c4)c3)ncn2)c(OC)cc1N1CCN(C)CC1` . Its GI50 was 50 to 500 nM

Summary for this molecule, `C=CC(=O)Nc1cc(Nc2cc(N3OCC[C@@H]3c3cccc(-c4cnc5ccnn5c4)c3)ncn2)c(OC)cc1N1CCN(C)CC1` : GI50 is < 50 nM

Just so you know, measured GI50 for `C=CC(=O)Nc1cc(Nc2cc(N3OCC[C@@H]3c3cccc(-c4cc(F)cc(F)c4)c3)ncn2)c(OC)cc1N1CCN(CCC)CC1` came out at < 50 nM
